target: FXR (Homo sapiens, UniProt Q96RI1); construct: using a full length FXR on a natural response element; expressed in transfected cells; assay: cell-based transcription assay, FXR responsive promoter linked to a luciferase reporter; details: Tables 1-15; FXR activation, cell-based reporter assay; read-out: EC50
pEC50: −log10 of the molar value.
Kindly state pEC50 for each of the entries shown.

See these solved cases before continuing.
mol	assay value
CC(C)(C)OC(=O)C=Cc1ccc(CN(C(=O)C2CCCCC2)c2cccc(C=CC(N)=O)c2)cc1	< 6.00
COC(=O)/C=C/c1cccc(N(Cc2cccc(OC)c2)C(=O)C2CCCCC2)c1	< 6.00
CC(C)(C)OC(=O)C=Cc1ccc(CN(C(=O)C2CCCCC2)c2cccc(C=CC(=O)OC(C)(C)C)c2)cc1	< 6.00
COC(=O)C=Cc1cccc(N(Cc2ccc(C=CC(=O)N(C)C)cc2)C(=O)C2CCCCC2)c1	< 6.00
COC(=O)/C=C/c1cccc(N(C)C(=O)C2CCCCC2)c1	< 6.00

Okay, next one:
// recorded pEC50 for `CCOC(=O)COc1cc(C=CC(=O)OC(C)(C)C)ccc1CN(C(=O)C1CCCCC1)c1cccc(C=CC(=O)OC)c1` : < 6.00

====

biological target: FXR (Homo sapiens); construct: using a full length FXR on a natural response element; expressed in transfected cells; test: cell-based transcription assay, FXR responsive promoter linked to a luciferase reporter; design: scale not given here; details: Tables 1-15; RE not defined in the source
measured endpoint: RE
Numbers only.

See these solved cases before continuing.
mol	RE
CC(C)(C)OC(=O)C=Cc1ccc(CN(C(=O)C2CCCCC2)c2cccc(C=CCOc3ccccc3)c2)cc1	0.45
COC(=O)/C=C/c1cccc(N(Cc2ccc(/C=C/c3ccccc3)cc2)C(=O)NC(C)C)c1	1.38

`COC(=O)/C=C/c1cccc(N(Cc2ccc(-c3ccc(OC(F)(F)F)cc3)cc2)C(=O)C(C)C)c1` on FXR (Homo sapiens) gives RE = 0.78

====

molecular target: FXR (Homo sapiens); construct: using a full length FXR on a natural response element; expressed in transfected cells; test: cell-based transcription assay, FXR responsive promoter linked to a luciferase reporter; parameters: scale not given here; conditions: Tables 1-15; RE not defined in the source
measured endpoint: RE
Numbers only.

See these solved cases before continuing.
compound	RE
CCOc1cccc(-c2ccc(CN(C(=O)C(C)C)c3cccc(/C=C/C(=O)OC)c3)cc2)c1 [Compound 227]	1.03
COC(=O)/C=C/c1cccc(N(C(=O)C2CCCCC2)c2ccc3ccccc3c2)c1 [Compound 111]	0.41
COC(=O)/C=C/c1cccc(N(Cc2ccc3c(c2OC)OC(C)(C)C=C3)C(=O)C2CCCCC2)c1 [Compound 65]	0.40
COC(=O)/C=C/c1cccc(N(Cc2ccc(-c3cccc(OC(F)(F)F)c3)cc2)C(=O)C(C)C)c1 [Compound 254]	0.59
COC(=O)/C=C/c1cccc(N(Cc2ccc(-c3ccccc3)cc2)C(=O)C2CCCCC2)c1 [Compound 124]	0.71

Okay, next one:
// recorded RE for COC(=O)/C=C/c1cccc(N(Cc2ccc(/C=C/c3cccc(Cl)c3)cc2)C(=O)NC(C)C)c1 [Compound 182] : 0.58

====

Target: FXR (Homo sapiens)
Construct: using a full length FXR on a natural response element; expressed in transfected cells
Sequence (Q96RI1 1-486): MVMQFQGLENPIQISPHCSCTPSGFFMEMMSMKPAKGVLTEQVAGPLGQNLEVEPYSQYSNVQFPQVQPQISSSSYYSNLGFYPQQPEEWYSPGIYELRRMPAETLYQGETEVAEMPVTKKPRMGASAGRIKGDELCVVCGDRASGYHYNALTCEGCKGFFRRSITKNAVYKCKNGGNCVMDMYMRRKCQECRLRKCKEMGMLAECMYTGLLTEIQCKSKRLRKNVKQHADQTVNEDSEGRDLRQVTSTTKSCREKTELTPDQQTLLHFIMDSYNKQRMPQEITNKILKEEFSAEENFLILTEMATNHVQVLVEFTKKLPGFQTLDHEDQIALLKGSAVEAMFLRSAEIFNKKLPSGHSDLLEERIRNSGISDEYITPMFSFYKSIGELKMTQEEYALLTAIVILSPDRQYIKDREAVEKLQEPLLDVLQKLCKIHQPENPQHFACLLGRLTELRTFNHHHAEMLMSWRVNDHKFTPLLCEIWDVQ
Experiment: cell-based transcription assay, FXR responsive promoter linked to a luciferase reporter
Settings: Tables 1-15; FXR activation, cell-based reporter assay; read-out: EC50
measured endpoint: pEC50
Give bare numbers, as −log10 of the molar value.

See these solved cases before continuing.
molecule	pEC50
COC(=O)/C=C/c1cccc(N(Cc2ccc(/C=C/C(=O)OC(C)(C)C)cc2)C(=O)NC(C)C)c1 [Compound 145]	6.67
COC(=O)/C=C/c1cccc(N(Cc2ccc(/C=C/c3c(C)cc(C)cc3C)cc2)C(=O)C(C)C)c1 [Compound 196]	6.83
COC(=O)/C=C/c1cccc(N(Cc2ccc(-c3cccc(C)c3)cc2)C(=O)C2CCCCC2)c1 [Compound 238]	6.96
COC(=O)/C=C/c1cccc(N(Cc2ccc(-c3cc(Cl)ccc3OC)cc2)C(=O)NC(C)C)c1 [Compound 243]	5.51
COC(=O)/C=C/c1cccc(N(Cc2ccc(-c3ccc(C)cc3)cc2)C(=O)NC(C)C)c1 [Compound 237]	6.35

# return pEC50 for each item in the list
1. COC(=O)/C=C/c1cccc(N(Cc2ccc(-c3ccc(C(C)(C)C)cc3)cc2)C(=O)NC(C)C)c1 [Compound 264]
2. COC(=O)/C=C/c1cccc(N(Cc2ccc(-c3ccc(N(C)C)cc3)cc2)C(=O)NC(C)C)c1 [Compound 261]
3. COC(=O)/C=C/c1cccc(N(Cc2ccc(-c3ccc(F)c(Cl)c3)cc2)C(=O)C(C)C)c1 [Compound 248]
4. COC(=O)/C=C/c1cccc(N(Cc2ccc(/C=C/c3cccc(C(F)(F)F)c3)cc2)C(=O)C(C)C)c1 [Compound 187]

a:
6.58
6.79
6.89
6.57

# return pEC50 for each item in the list
1. COC(=O)/C=C/c1cccc(N(Cc2ccc(-c3ccc(F)c(F)c3)cc2)C(=O)C2CCCCC2)c1 [Compound 213]
2. COC(=O)/C=C/c1cccc(N(Cc2ccc(/C=C/c3c(F)cccc3F)cc2)C(=O)NC(C)C)c1 [Compound 191]
3. COC(=O)C=Cc1cccc(N(Cc2ccc(-c3ccc(C(C)=O)s3)cc2)C(=O)C2CCCCC2)c1 [Compound 129]
4. COC(=O)/C=C/c1cccc(N(Cc2ccc(/C=C/c3ccccc3F)cc2)C(=O)NC(C)C)c1 [Compound 194]

a:
1. 7.14
2. 5.40
3. 6.59
4. 6.37

====

Target: FXR (Homo sapiens)
Construct: using a full length FXR on a natural response element; expressed in transfected cells
Sequence (Q96RI1 1-486): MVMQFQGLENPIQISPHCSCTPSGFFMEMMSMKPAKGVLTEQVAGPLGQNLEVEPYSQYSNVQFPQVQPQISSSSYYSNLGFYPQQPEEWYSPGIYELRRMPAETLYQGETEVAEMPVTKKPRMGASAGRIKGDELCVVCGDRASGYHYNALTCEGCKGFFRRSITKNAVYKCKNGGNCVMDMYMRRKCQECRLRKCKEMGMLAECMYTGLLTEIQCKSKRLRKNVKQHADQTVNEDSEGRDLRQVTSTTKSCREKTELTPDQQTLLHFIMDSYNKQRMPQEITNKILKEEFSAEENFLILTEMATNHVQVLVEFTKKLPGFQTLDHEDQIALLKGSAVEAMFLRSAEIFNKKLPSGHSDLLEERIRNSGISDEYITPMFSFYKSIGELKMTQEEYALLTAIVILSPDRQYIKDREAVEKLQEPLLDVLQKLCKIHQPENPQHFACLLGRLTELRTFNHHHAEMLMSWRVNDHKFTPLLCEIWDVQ
Experiment: cell-based transcription assay, FXR responsive promoter linked to a luciferase reporter
Details: Tables 1-15; FXR activation, cell-based reporter assay; read-out: EC50
measured endpoint: pEC50
Numbers only, as −log10 of the molar value.

mol	assayed system	pEC50
COC(=O)/C=C/c1cccc(N(Cc2ccc(/C=C/C(=O)OC(C)(C)C)cc2)C(=O)C2CC2)c1	FXR (Homo sapiens)	6.60
COC(=O)/C=C/c1cccc(N(Cc2ccc(/C=C/c3cccc(Cl)c3)cc2)C(=O)C(C)C)c1	FXR (Homo sapiens)	6.58

# return pEC50 for each item in the list
1. COC(=O)/C=C/c1cccc(N(Cc2ccc(-c3ccc(OC)cc3)cc2)C(=O)C2CCCCC2)c1
2. CC(C)(C)OC(=O)C=Cc1ccc(CN(C(=O)C2CCCCC2)c2cccc(C=CCOc3ccccc3)c2)cc1
3. COC(=O)/C=C/c1cccc(N(Cc2ccc(-c3ccc(C)cc3)cc2)C(=O)C(C)C)c1
4. COC(=O)/C=C/c1cccc(N(Cc2ccc(-c3ccc(F)c(Cl)c3)cc2)C(=O)C2CCCCC2)c1
5. COC(=O)C=Cc1cccc(N(Cc2ccc(C=Cc3ccccc3F)cc2)C(=O)C2CCCCC2)c1

a:
7.05
5.55
6.93
7.18
7.19

# return pEC50 for each item in the list
1. COC(=O)/C=C/c1cccc(N(Cc2ccc(-c3ccc(CC(C)C)cc3)cc2)C(=O)C(C)C)c1
2. COC(=O)/C=C/c1cccc(N(Cc2ccc(-c3ccc(C(C)(C)C)cc3)cc2)C(=O)C2CCCCC2)c1

a:
1. 6.46
2. 6.88
